Origin of measurements: patent US7842469B2

assay: Quantum yield measurements; format: biochemical; details: coelenterazine-n
endpoint label: Quantum Yield (%) n

[[record]]
molecule = "C124A/S130A: RLuc mutant C124A/S130A (protein) MASKVYDPEQRKRMITGPQWWARCKQMNVLDSFINYYDSEKHAENAVIFLHGNAASSYLWRHVVPHIEPVARCIIPDLIGMGKSGKSGNGSYRLLDHYKYLTAWFELLNLPKKIIFVGHDWGAALAFHYAYEHQDKIKAIVHAESVVDVIESWDEWPDIEEDIALIKSEEGEKMVLENNFFVETMLPSKIMRKLEPEEFAAYLEPFKEKGEVRRPTLSWPREIPLVKGGKPDVVQIVRNYNAYLRASDDLPKMFIESDPGFFSNAIVEGAKKFPNTEFVKVKGLHFSQEDAPDEMGKYIKSFVERVLKNEQ"
endpoint_label = "Quantum Yield (%) n"
result_value = 5.9

[[record]]
molecule = "C124A/K136R: RLuc mutant C124A/K136R (protein) MASKVYDPEQRKRMITGPQWWARCKQMNVLDSFINYYDSEKHAENAVIFLHGNAASSYLWRHVVPHIEPVARCIIPDLIGMGKSGKSGNGSYRLLDHYKYLTAWFELLNLPKKIIFVGHDWGAALAFHYSYEHQDRIKAIVHAESVVDVIESWDEWPDIEEDIALIKSEEGEKMVLENNFFVETMLPSKIMRKLEPEEFAAYLEPFKEKGEVRRPTLSWPREIPLVKGGKPDVVQIVRNYNAYLRASDDLPKMFIESDPGFFSNAIVEGAKKFPNTEFVKVKGLHFSQEDAPDEMGKYIKSFVERVLKNEQ"
endpoint_label = "Quantum Yield (%) n"
result_value = 6.0

